For each of the molecules below, state its inhibition at 20 µM.
target: 17β-hydroxysteroid dehydrogenase 2 (17β-HSD2) (Homo sapiens); construct: gene HSD17B2; assay: biochemical; parameters: species or system HEK-293 (transiently transfected); Radiolabeled estradiol to estrone conversion (200 nM, NAD+) in lysates of 17β-HSD2-transfected cells; TLC and scintillation counting
Show the value, then the unit it is measured in.

For CCCOC(=O)c1ccc(O)cc1 [propylparaben] the molecule record lists inhibition at 20 µM as 37%

For O=C(O)c1ccc(O)cc1 [p-hydroxybenzoic acid] the molecule record lists inhibition at 20 µM as 0%

For CCCCOC(=O)c1ccc(O)cc1 [butylparaben] the molecule record lists inhibition at 20 µM as 30%

For CCOC(=O)c1ccc(O)cc1 [2-P, ethylparaben] the molecule record lists inhibition at 20 µM as 74%

For CC(C)OC(=O)c1ccc(O)cc1 [isopropylparaben] the molecule record lists inhibition at 20 µM as 60%

For COC(=O)c1ccc(O)cc1 [methylparaben] the molecule record lists inhibition at 20 µM as 50%

For CC(C)COC(=O)c1ccc(O)cc1 [isobutylparaben] the molecule record lists inhibition at 20 µM as 53%

====

Target: 17β-hydroxysteroid dehydrogenase 2 (17β-HSD2) (Homo sapiens, UniProt P37059)
Sequence (P37059 1-387): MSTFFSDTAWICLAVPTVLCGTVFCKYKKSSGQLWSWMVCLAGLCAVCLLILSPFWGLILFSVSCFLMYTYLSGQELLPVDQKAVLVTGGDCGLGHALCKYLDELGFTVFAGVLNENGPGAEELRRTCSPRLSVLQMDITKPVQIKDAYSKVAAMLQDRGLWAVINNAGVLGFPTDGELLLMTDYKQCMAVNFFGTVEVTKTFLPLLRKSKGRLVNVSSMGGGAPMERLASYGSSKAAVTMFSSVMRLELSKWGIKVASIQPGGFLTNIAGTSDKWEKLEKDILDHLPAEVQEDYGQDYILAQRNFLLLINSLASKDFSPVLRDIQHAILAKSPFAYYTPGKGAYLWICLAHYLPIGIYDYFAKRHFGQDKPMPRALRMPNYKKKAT
Experiment: radiolabeled estradiol to estrone conversion in lysates of HEK-293 cells transfected with human […]β-HSD2
OUTCOME MEASURE: IC50

For CCOC(=O)c1ccc(O)c(OC)c1 [ethyl vanillate] the molecule record lists IC50 as 1.3 µM

For CCOC(=O)c1ccc(O)cc1 the molecule record lists IC50 as 4.6 µM
